Property: relative MFI normalized to full-length human CD137; scope: individual binders
- system: human/mouse CD137 chimera 1553 (human/mouse chimera) (UniProt Q07011)
- method: flow cytometry, transfected 293-F cells
readout.type: relative MFI normalized to full-length human CD137

binder	assay.value
1204/1205 (antibody, V domains shown) VH: EVQLLESGGGLVQPGGSLRLSCAASGFTFSSYYMGWVRQAPGKGLEWVSGIGSYYGYTGYADSVKGRFTISRDNSKNTLYLQMNSLRAEDTAVYYCARAYYDYNYYYAYFDYWGQGTLVTVSS VL: DIQMTQSPSSLSASVGDRVTITCRASQSISSYLNWYQQKPGKAPKLLIYAASSLQSGVPSRFSGSGSGTDFTLTISSLQPEDFATYYCQQSVPHYPFTFGQGTKLEIK	0.85
1202/1203 (antibody, V domains shown) VH: EVQLLESGGGLVQPGGSLRLSCAASGFTFYGSSMSWVRQAPGKGLEWVSSIYYGSSGTYYADSVKGRFTISRDNSKNTLYLQMNSLRAEDTAVYYCARSYYGYFDYWGQGTLVTVSS VL: DIQMTQSPSSLSASVGDRVTITCRASQSISSYLNWYQQKPGKAPKLLIYAASSLQSGVPSRFSGSGSGTDFTLTISSLQPEDFATYYCQQYYTVVPFTFGQGTKLEIK	0.65
1200/1201 (antibody, V domains shown) VH: EVQLLESGGGLVQPGGSLRLSCAASGFTFSSYAMSWVRQAPGKGLEWVSGISGGGGGTYYADSVKGRFTISRDNSKNTLYLQMNSLRAEDTAVYYCARDVAYFDYWGQGTLVTVSS VL: DIQMTQSPSSLSASVGDRVTITCRASQSISSYLNWYQQKPGKAPKLLIYAASSLQSGVPSRFSGSGSGTDFTLTISSLQPEDFATYYCQQYYIPHTFGQGTKLEIK	0.65
